Data origin: ChEMBL document CHEMBL1141240

assay: Selectivity of Muscarinic receptor M1 over DAT
Examples of molecules with documented Ratio Ki follow.

# molecule, Ratio Ki
data = [
    ("CN(C(c1ccc(F)cc1)c1ccc(F)cc1)[C@H]1C[C@H]2CC[C@@H](C1)N2C", 0.2),
    ("CN1[C@@H]2CC[C@H]1C[C@@H](NC(c1ccc(Cl)c(Cl)c1)c1ccc(Cl)c(Cl)c1)C2", 3),
    ("C=CCN1[C@@H]2CC[C@H]1C[C@@H](NC(c1ccc(F)cc1)c1ccc(F)cc1)C2", 5),
    ("CN1[C@@H]2CC[C@H]1C[C@H](NC(c1ccc(F)cc1)c1ccc(F)cc1)C2", 0.1),
    ("CCCCN1[C@@H]2CC[C@H]1C[C@@H](NC(c1ccc(F)cc1)c1ccc(F)cc1)C2", 21),
    ("CN1[C@@H]2CC[C@H]1C[C@@H](NC(c1ccccc1)c1ccc(Cl)cc1)C2 (some centres not stated)", 0.3),
    ("O=C(CCN1[C@@H]2CC[C@H]1C[C@@H](NC(c1ccc(F)cc1)c1ccc(F)cc1)C2)Nc1ccccc1", 551),
]
